Data origin: patent US20210301025A1

# assayed.target: T1, recombinant human extracellular domain of EGFR fused to an IgG1 Fc (human, UniProt P00533 25-645)
# T1 construct: Bought (R&D Systems); captured on anti-human Fc IgG for SPR; also called EGFR-Fc
# assay.text: SPR (ProteOn), EGFR-Fc captured on anti-human Fc IgG
measure.name: Kd (nM)
Quick note: give the figure in nM, leave out the unit.

Query: Name the reported Kd value associated with the binder P54CR4-31 (designed binder, not shown: small tags and cut ends) LPAPKNLVVSEVTEDSLRLSWTAPDAAFDSFLIQYQESEKVGEAINLTVPGSERSYDLTGLKPGTEYTVSIYGVLGSYVFEHDVMLPLSAEFTT
Response: 0.383

Query: How about P54AR4-48 (designed binder, not shown: small tags and cut ends) LPAPKNLVVSEVTEDSLRLSWDDPRGFYESFLIQYQESEKVGEAINLTVPGSERSYDLTGLKPGTEYTVSIYGVHNVYKDTNMRGLPLSAEFTT ?
Response: 7.78

Query: Subsequent entry: P54AR4-83 (designed binder, not shown: small tags and cut ends) LPAPKNLVVSEVTEDSLRLSWDDPWAFYESFLIQYQESEKVGEAINLTVPGSERSYDLTGLKPGTEYTVSIYGVHNVYKDTNMRGLPLSAEFTT
Response: 0.255

Query: Try this binder next: P53A1R5-17 (designed binder, not shown: small tags and cut ends) LPAPKNLVVSEVTEDSLRLSWADPHGFYDSFLIQYQESEKVGEAINLTVPGSERSYDLTGLKPGTEYTVSIYGVHNVYKDTNMRGLPLSAEFTT
Response: 1.89

Query: Thanks! And P54AR4-73 (designed binder, not shown: small tags and cut ends, also called P54AR4-37) LPAPKNLVVSEVTEDSLRLSWTWPYADLDSFLIQYQESEKVGEAINLTVPGSERSYDLTGLKPGTEYTVSIYGVHNVYKDTNMRGLPLSAEFTT ?
Response: 0.197

Query: Same read-out for P54AR4-17 (designed binder, not shown: small tags and cut ends) LPAPKNLVVSEVTEDSLRLSWTYDRDGYDSFLIQYQESEKVGEAINLTVPGSERSYDLTGLKPGTEYTVSIYGVHNVYKDTNMRGLPLSAEFTT ?
Response: 9.62
